test: Caco-2 permeability assay; conditions: human, Caco-2, pH 7.4, Efflux Ratio

compound	efflux ratio at 120 min, 10 µM
CCCCC[C@H](O)CC(=O)CCc1ccc(O)c(OC)c1 [6G, 6-gingerol]	< 2

* * *

tested on: Caco-2 monolayer; assay: Caco-2 permeability assay; conditions: A→B, 10 µM
Measured Intracellular accumulation accompanies every entry in the list below.

compound	Intracellular accumulation
CCCCC[C@H](O)CC(=O)CCc1ccc(O)c(OC)c1	2%
CCCCCCC[C@H](O)CC(=O)CCc1ccc(O)c(OC)c1	14%
CCCCCCCCC[C@H](O)CC(=O)CCc1ccc(O)c(OC)c1 [10G, 10-gingerol]	15%
CCCCC/C=C/C(=O)CCc1ccc(O)c(OC)c1	0%

* * *

Target chain: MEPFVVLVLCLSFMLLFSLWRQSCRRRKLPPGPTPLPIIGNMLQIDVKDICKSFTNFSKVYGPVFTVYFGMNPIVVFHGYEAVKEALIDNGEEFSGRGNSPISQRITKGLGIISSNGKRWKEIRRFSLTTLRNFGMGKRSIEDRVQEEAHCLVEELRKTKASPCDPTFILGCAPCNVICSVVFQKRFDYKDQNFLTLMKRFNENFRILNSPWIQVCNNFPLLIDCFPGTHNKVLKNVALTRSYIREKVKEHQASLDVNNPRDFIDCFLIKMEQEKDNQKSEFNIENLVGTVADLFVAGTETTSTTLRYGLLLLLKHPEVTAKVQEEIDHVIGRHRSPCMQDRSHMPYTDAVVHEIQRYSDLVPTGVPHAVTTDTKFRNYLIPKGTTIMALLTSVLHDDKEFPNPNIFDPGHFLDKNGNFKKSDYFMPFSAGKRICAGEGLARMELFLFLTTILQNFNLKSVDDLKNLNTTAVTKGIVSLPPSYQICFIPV
readout_label: IC50 (µM)

sample_smiles	result_unit	value_observed
CCCCC[C@H](O)CC(=O)CCc1ccc(O)c(OC)c1	µM	22.1

* * *

test system: Caco-2 monolayer; assay: Caco-2 permeability assay; details: 10 µM, direction not given

molecule	Intracellular (cell) accumulation
CCCCCCC[C@H](O)CC(=O)CCc1ccc(O)c(OC)c1 [8G, 8-gingerol]	< 1%
CCCCC[C@H](O)CC(=O)CCc1ccc(O)c(OC)c1 [6G, 6-gingerol]	< 5%
CCCCCCCCC[C@H](O)CC(=O)CCc1ccc(O)c(OC)c1 [10G, 10-gingerol]	15%

* * *

assay: Caco-2 permeability assay; conditions: human, Caco-2, pH 7.4, Mass Balance (recovery), A→B

sample_smiles	recovery at 120 min, 10 µM
CCCCC[C@H](O)CC(=O)CCc1ccc(O)c(OC)c1	< 50%

* * *

Protein target, amino acids: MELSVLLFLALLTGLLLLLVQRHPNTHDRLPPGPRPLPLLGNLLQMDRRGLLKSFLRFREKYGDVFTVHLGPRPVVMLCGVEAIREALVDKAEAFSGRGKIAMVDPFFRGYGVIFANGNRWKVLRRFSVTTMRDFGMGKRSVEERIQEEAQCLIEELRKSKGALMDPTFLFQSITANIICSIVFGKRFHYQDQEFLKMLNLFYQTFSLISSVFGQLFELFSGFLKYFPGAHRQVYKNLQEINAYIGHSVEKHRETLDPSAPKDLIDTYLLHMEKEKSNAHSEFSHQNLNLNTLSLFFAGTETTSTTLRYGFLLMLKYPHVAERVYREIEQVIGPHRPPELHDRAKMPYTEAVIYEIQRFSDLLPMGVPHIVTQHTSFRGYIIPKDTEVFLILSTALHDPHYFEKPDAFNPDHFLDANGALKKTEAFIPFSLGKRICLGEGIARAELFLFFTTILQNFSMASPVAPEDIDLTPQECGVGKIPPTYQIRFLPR
readout_label: IC50 (µM)

sample_smiles	readout_label	result_unit	value_observed
CCCCC[C@H](O)CC(=O)CCc1ccc(O)c(OC)c1	IC50	µM	51

Each recorded value in this set is attributed to paper PMC4177392.
